Reference source: patent EP4644383A1

Target System: FGFR4 (Homo sapiens, UniProt P22455)
Construct: FGFR4's cytoplasmic domain [460-802 (terminal) amino acids]; purchased Carna 08-136
Sequence (P22455 460-802): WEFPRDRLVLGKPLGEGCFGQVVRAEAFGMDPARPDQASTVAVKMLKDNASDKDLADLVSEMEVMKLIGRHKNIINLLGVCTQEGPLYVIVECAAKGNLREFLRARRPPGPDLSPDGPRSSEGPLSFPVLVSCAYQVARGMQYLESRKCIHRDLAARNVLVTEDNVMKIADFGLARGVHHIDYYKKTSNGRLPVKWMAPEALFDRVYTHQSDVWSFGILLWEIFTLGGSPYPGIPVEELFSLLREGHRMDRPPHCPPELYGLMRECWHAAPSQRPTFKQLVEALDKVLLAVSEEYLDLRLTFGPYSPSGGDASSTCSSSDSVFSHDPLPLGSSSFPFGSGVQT
Protocol Text: FGFR4 kinase activity inhibition assay (LanthaScreen TR-FRET)
Type: biochemical
Test Context: FGFR4 kinase, TR-FRET; read-out: IC50 (nM) FGFR4
Quick reference for IC50 among some molecules

>  <Molecule>
CC(Oc1ccc2[nH]nc(-c3cnn(C)c3)c2c1)c1cccn2ncc(F)c12 (stereo not shown) [Example 184]

>  <Target System>
FGFR4 (Homo sapiens, UniProt P22455)

>  <IC50>
1 to 10 nM

$$$$

Return reported IC50; argument: CC(Oc1ccc2[nH]nc(-c3cnn(C)c3)c2c1)c1nc(C(F)F)cc2nccnc12 (stereo not shown) [Example 236]
10 to 100 nM

Looking for the measured IC50 of C[C@@H](Oc1cc(F)c2[nH]nc(-c3cnn(CCCN(C)C)c3)c2c1)c1c(Cl)cncc1Cl [Example 17] , can you help?
> 100 nM

IC50 for CC(Oc1ccc2[nH]nc(-c3cnn(C)c3)c2c1)c1cc(Cl)cn2nccc12 (stereo not shown) [Example 174] ?
10 to 100 nM
